This collection of values is drawn from patent US11168052B2.

Tested on: MES (electroshock) seizure in mice
Test: Anti-epilepsy activity, MES test in mouse
Assay type: in vivo, ICR mice
Conditions: po, dose 100 mg/kg, read-out: MES test (po) efficacy %
Please mark criterion met if the recorded responders at 100 mg/kg is equal to or greater than 50%, and criterion not met if it falls below.

These solved cases illustrate the format of a correct answer.
• NC(=O)O[C@@H]1CCc2cccc(F)c2[C@@H]1O = criterion met
• NC(=O)O[C@@H]1CCc2ccccc2[C@@H]1OC(N)=O = criterion not met
• COCO[C@H]1c2c(Cl)cccc2CC[C@H]1OC(N)=O = criterion met
• NC(=O)O[C@@H]1c2cc(Cl)ccc2CC[C@@H]1O = criterion met
• NC(=O)O[C@@H]1CCc2ccc(Cl)cc2[C@@H]1O = criterion not met
• NC(=O)O[C@H]1CCc2cccc(Cl)c2[C@@H]1O = criterion met

Now examine the next entry.
Decide: responders at 100 mg/kg of `NC(=O)O[C@@H]1CCc2cccc(Cl)c2[C@@H]1OC(N)=O` >= 50%?
criterion met
